method_notes: Toxicity liver stage against HepG2, at 10uM
Assay type: cell-based
Design: test concentration 10 uM, cell line HepG2-A16-CD81EGFP
test_parameters: human, HepG2-A16-CD81EGFP cells; read-out: INHIBITION
Can you tell me cytotoxicity at 10 µM for the items I'm about to list?
One number for each entry, in %.

Count: 8. Required value per item: cytotoxicity at 10 µM.
1. Cc1nccn1-c1ccc(N2CCC(NC(C)C(C)C)CC2)cc1 (stereo not drawn)
2. Cn1cccc1C(=O)N1CC2(CCN(C(=O)c3cccnc3)C2)C1
3. CNc1cc(C2CN(Cc3scnc3C)CCO2)nc(C)n1 (stereo not drawn)
4. Cc1cc(NCc2cn(C)nc2-c2cccnc2)n(C)n1
5. O=S1(=O)CCC(S(=O)(=O)c2cccc(S(=O)(=O)N3CCCCCC3)c2)C1 (stereo not drawn)
6. CN(CCO)Cc1nnc(C2CCN(C(=O)c3ccccn3)CC2)n1C
7. CSc1nc(O)c(Cc2ccccc2)c(=O)n1-c1ccccc1
8. CN(C)S(=O)(=O)N1CCCC(c2cccc(Cc3ccc(F)cc3)n2)C1 (stereo not drawn)

1: -7.33; 2: -98.4; 3: -24.7; 4: 12; 5: -7.39; 6: 0.5; 7: -6.24; 8: 38.9

# batch size: 4; output cytotoxicity at 10 µM per entry
1. CNC(=O)c1ccnc(N2CCCC(COc3cccc(C)c3)C2)c1 (stereo not drawn)
2. CCCC(NC(=O)c1ccccc1Br)c1nnn[nH]1 (stereo not drawn)
3. CC(C)c1cc(=O)[nH]c(-n2nc(C3CC3)cc2N)n1
4. c1cc2c(cc1C[C@@H]1CC[C@H](CN3CCCOCC3)O1)OCO2

1. 7.68
2. -1.8
3. 33.9
4. -12.9

Answer for every listed entry: what is its cytotoxicity at 10 µM? The entries follow.
1. COCCCn1ccc(NC(=O)NCCCNc2ccccc2)n1
2. O=C(Nc1ccccc1-c1cccs1)N1CCN(CC(F)F)CC1
3. Cc1cnc(CNC(=O)CCCn2cnc3ccccc3c2=O)cn1
4. N#CCCN(CCC#N)C(=O)COC1CCCCC1
5. CCCn1ncc(CN2C[C@@H]3CCCN3C[C@H]2Cc2ccccc2)c1C
6. Cc1cc(C(=O)N2C[C@@H]3CC[C@H]2CN(C)C3)ccc1Cl
7. CN1CCN(Cc2cccnc2)C2(CCN(C3CCOCC3)C2)C1=O (stereo not drawn)
8. Cc1cc(O)cc(=O)n1CCCC(=O)Nc1n[nH]c2ccccc12

4.97
-2.11
-7.2
0.631
-16.3
-8.23
-5.87
-10.6

---

method_notes: Toxicity liver stage against HepG2, at 10uM
Assay type: cell-based
Design: test concentration 10 uM, cell line HepG2-A16-CD81EGFP
test_parameters: human, HepG2-A16-CD81EGFP cells; read-out: INHIBITION
outcome_measure: cytotoxicity at 10 µM (%)
One number for each entry, in %.

Lab note: Cc1nn(C)c(N2CCCN(C)CC2)c1CNC(=O)CC(C)(C)C gave cytotoxicity at 10 µM of 8

Go through the list and state cytotoxicity at 10 µM for each entry.
1. Cc1cccc(CN2CCC3(CCN(Cc4ccccn4)C3)C2=O)c1 (stereo not drawn)
2. Cc1nnsc1CNC(=O)Nc1cccc(N2CCN(C)C2=O)c1
3. CCC(CC)C(CNC(=O)Nc1ccc(C)cc1)N1CCOCC1 (stereo not drawn)
4. COc1nccnc1-c1cc(NC2CCCC2)nc2[nH]ccc12
5. Cc1cc2ccccc2n1CCC(=O)NCCS(C)(=O)=O

1. 12
2. -3.97
3. -5.9
4. 1.97
5. -5.79

---

method_notes: Toxicity liver stage against HepG2, at 10uM
Type: cell-based
Parameters: test concentration 10 uM, cell line HepG2-A16-CD81EGFP
test_parameters: human, HepG2-A16-CD81EGFP cells; read-out: INHIBITION
outcome_measure: cytotoxicity at 10 µM (%)
Give bare numbers, in %.

// cytotoxicity at 10 µM lookup, compound = Cc1ccnc(N2CCN(Cc3ccccc3)CC(O)C2)c1 (stereo unspecified) , result: -1.88

// cytotoxicity at 10 µM value for COc1ccc(-c2cccc(-c3ccn(CCCN(C)C)n3)c2)nn1 : -1.01

Record CS(=O)(=O)CCCC(=O)Nc1cc(Cl)c(Cl)cn1 , field cytotoxicity at 10 µM: 2.69

O=C(Nc1cc(C2CCOCC2)[nH]n1)c1ccc(Cl)cn1 yielded cytotoxicity at 10 µM of 0.78

According to the records, this compound O=C(CC1CC1)N[C@@H]1CN(Cc2cccnc2)C[C@@H]2CCCO[C@@H]21 displays cytotoxicity at 10 µM of -0.995

Fill in cytotoxicity at 10 µM for each of the 6 compounds listed.
1. Cc1ccc(CN(CCCn2ccnc2)Cc2c(F)cccc2F)s1
2. O=C1CCC(C(=O)Nc2cnn(-c3ccccc3Cl)c2)N1 (stereo unspecified)
3. CCOc1ccc(Cl)cc1CCNC(=O)N1CCCC(CO)C1 (stereo unspecified)
4. O=C(NC1CC1)N1CCOCC2(CCN(Cc3cccs3)C2)C1 (stereo unspecified)
5. O=c1cc(N2CCCC2)cnn1Cc1noc(C2CCCO2)n1 (stereo unspecified)
6. CCOC1CC2(CCN(C(=O)COC)CC2)c2cc(C)ccc21 (stereo unspecified)

[2.76, -7.41, 5.46, -2.6, -59.8, -142]

---

method_notes: Toxicity liver stage against HepG2, at 10uM
Format: cell-based
Design: test concentration 10 uM, cell line HepG2-A16-CD81EGFP
test_parameters: human, HepG2-A16-CD81EGFP cells; read-out: INHIBITION
outcome_measure: cytotoxicity at 10 µM (%)
Give bare numbers, in %.

Field: cytotoxicity at 10 µM. Fill in for each record below.
1. O=C(c1ccnc(C2CCNCC2)c1)N1CCCC(CO)C1 (centres undefined)
2. CCc1nnc(N2CCN(c3ccccc3)C(=O)C2)o1
3. CCN(CC)CCNC(=O)c1ccc(-n2ccc3ccccc32)s1
4. COCCN1CCOCC12CCN(C(=O)c1ccncc1)CC2
5. O=C(C1=CCCC1)N1C[C@H](Oc2cccnc2)[C@H]2OCCC[C@H]21

[3.9, -8.74, 8.01, -71.9, -8.42]

---

method_notes: Toxicity liver stage against HepG2, at 10uM
Type: cell-based
Set-up: test concentration 10 uM, cell line HepG2-A16-CD81EGFP
test_parameters: human, HepG2-A16-CD81EGFP cells; read-out: INHIBITION
outcome_measure: cytotoxicity at 10 µM
Respond with a number, then the unit of measure.

Consider the reported cytotoxicity at 10 µM for these compounds:
Notebook: CC(C)CN1C(=O)C2(CCN(CC3CCOCC3)C2)c2ccccc21 (centres undefined) , cytotoxicity at 10 µM read as -71.2%

CC(NC(=O)NCc1c(F)cccc1Cl)(C(=O)O)c1ccco1 (centres undefined) yielded cytotoxicity at 10 µM of -3.23%

// recorded cytotoxicity at 10 µM for CN1CCOC(C(=O)Nc2nc(-c3ccc(Cl)cc3)n[nH]2)C1 (centres undefined) : -4.34%

So, Cn1ccnc1SCCNC1CCN(c2ncccn2)CC1 ? Its cytotoxicity at 10 µM was -7.63%

The measured cytotoxicity at 10 µM associated with COCCN1CCC(c2nc3cc(C)ccc3[nH]2)CC1 reads -0.621%

CCC1CCCCN1S(=O)(=O)c1c(C)noc1C (centres undefined) yielded cytotoxicity at 10 µM of -9.35%

So, CCn1nc(CNC(C)(C)CO)c(-c2ccccc2)n1 ? Its cytotoxicity at 10 µM was 8.96%

Data point: COc1ccccc1CCNC(=O)NCC(=O)Nc1cccnc1 ; cytotoxicity at 10 µM = -15.2%

Provide reported cytotoxicity at 10 µM for each item, in the same order as listed.
1. O=C1CC(c2cccs2)Cc2[nH]c(=O)ccc21 (centres undefined)
2. Cc1cc(N2CCC3(CCCN(CCO)C3=O)C2)nc2ccccc12 (centres undefined)
3. CCOc1ccccc1C(CC(=O)Nc1ccccn1)NC(C)=O (centres undefined)
4. CCc1cnc(N2CC[C@H]3[C@@H]2CCC(=O)N3CC2CCOCC2)nc1

1: 0.185%; 2: 3.69%; 3: -3.95%; 4: 4.28%

---

method_notes: Toxicity liver stage against HepG2, at 10uM
Type: cell-based
Parameters: test concentration 10 uM, cell line HepG2-A16-CD81EGFP
test_parameters: human, HepG2-A16-CD81EGFP cells; read-out: INHIBITION
outcome_measure: cytotoxicity at 10 µM (%)
Answers are plain numbers, in %.

Query COC(=O)CC(NC(=O)c1cc(OC)c2c(c1)OCCO2)c1cccs1 (stereo unspecified) yields cytotoxicity at 10 µM of 2.01

What the record says about CCOC(=O)CNC(=O)N1CCC(OC)c2ccccc2N(C)C(=O)C1 (stereo unspecified) : cytotoxicity at 10 µM is 3.36

The compound listed as Cc1cnccc1CN1CC[C@@](C)(O)[C@H](Oc2cccc(F)c2)C1 shows cytotoxicity at 10 µM equal to 1.52

I need cytotoxicity at 10 µM for every entry listed below, if you could help.
1. CCCS(=O)(=O)N1C[C@@H](c2ccccc2)[C@@]2(CCNC2=O)C1
2. CCOc1ccccc1C(=O)N1CCCC(c2nccn2CCOC)C1 (stereo unspecified)
3. CC(NC(=O)c1cccs1)C(=O)NS(=O)(=O)c1ccc(C#N)cc1 (stereo unspecified)
4. COc1ccc(CCNC(=O)C2CCCOC2)c(Cl)c1 (stereo unspecified)
5. O=S(=O)(C1CC1)N1CCO[C@@H]2CC(COCc3cccnc3)C[C@H]21 (stereo partly specified)
6. CCC(CC)c1nnc(NC(=O)N2CCC(C(N)=O)CC2)s1
7. Cc1ccc(C(=O)N2C[C@@H](C(=O)O)[C@H](c3ccncc3)C2)cc1F
8. CC1CCN(C(=O)NCC(=O)N(C)CC(F)(F)F)C1 (stereo unspecified)

-109
1.1
5.11
0.0357
7.01
8.26
-11.2
1.82
